Taken from PubChem BioAssay AID248.

# Tested on: L1210 leukemia ip in BDF1 mice, survival T/C
# EXPERIMENTAL DETAILS: NCI In Vivo Anticancer Drug Screen. Data for tumor model L1210 Leukemia (intraperitoneal) in B6D2F1 (BDF1) mice
# MEASUREMENT CONDITIONS: endpoint: mean survival time; dose: 12.5 mg/kg/injection; schedule: Q01DX009 (ip); vehicle: saline with Tween-80; higher = longer survival
Inconclusive results and toxic doses are left out.
READOUT NAME: T/C

MOLECULE	EXPERIMENTAL RESULT
CCC(C)(O)C#CC#CC(C)(O)CC (stereo unspecified)	100 % of control
Nc1nc(=O)c2[nH]cnc2n1O	96 % of control

For each of the items listed, what is its T/C?
1. Cc1cc(NCCN(C(C)C)C(C)C)nc(Nc2nc3ccc(Cl)cc3[nH]2)n1
2. CCNC(=O)Oc1c(Cl)cc(S(=O)(=O)F)cc1Cl
3. O=C(CNC(=O)NCc1ccccc1)N/N=C/c1cccc([N+](=O)[O-])c1
4. CC1(C)CC(=O)C(C)(C)C(=O)C1

98 % of control
90 % of control
91 % of control
98 % of control
